# tgt: GSK3a (GST-full length GSK3a) (Homo sapiens, UniProt P49840)
# Construct: GST-full length GSK3a [SignalChem G08-10G]; purchased SignalChem G08-10G
# Sequence (P49840 whole entry): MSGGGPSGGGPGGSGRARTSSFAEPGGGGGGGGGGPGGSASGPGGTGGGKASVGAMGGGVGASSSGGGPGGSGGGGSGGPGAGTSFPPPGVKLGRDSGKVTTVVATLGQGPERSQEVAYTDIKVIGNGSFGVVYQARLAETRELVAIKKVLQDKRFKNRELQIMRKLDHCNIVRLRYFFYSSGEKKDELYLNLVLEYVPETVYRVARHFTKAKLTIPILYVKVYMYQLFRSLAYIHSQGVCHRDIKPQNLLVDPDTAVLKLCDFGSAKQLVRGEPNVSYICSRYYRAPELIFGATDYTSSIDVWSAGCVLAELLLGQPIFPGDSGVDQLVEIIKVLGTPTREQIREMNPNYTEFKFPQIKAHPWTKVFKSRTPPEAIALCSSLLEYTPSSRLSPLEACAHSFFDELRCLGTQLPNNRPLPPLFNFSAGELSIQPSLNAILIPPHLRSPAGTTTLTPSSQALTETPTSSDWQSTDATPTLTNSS
# method-summary: GSK3a TR-FRET kinase inhibition assay
# Assay type: biochemical
# assay-context: 1 mM ATP; Table 5; read-out: GSK3α TR-FRET 1 mM ATP Average IC50
pIC50: −log10 of the molar value.
readout: pIC50

Examples from the recorded data:
Query string: Under GSK3a (GST-full length GSK3a) (Homo sapiens, UniProt P49840): pIC50 value of CC1(C)CC(=O)C2=C(Nc3ncc(F)c(C#N)c3[C@]2(C)c2ccccc2)[C@H]1F (single isomer, unassigned) [Compound 617A] ?
Result string: 4.70 to 5.30

Query string: How about CC1(C)CC(=O)C2=C(Nc3ncc(F)c(C#N)c3[C@@]2(C)c2ccccc2)[C@@H]1F (single isomer, unassigned) [Compound 617B] ?
Result string: 6.00 to 7.00

Query string: How about CC1(C)CC2=C(C(=O)N1)C(C)(c1cccc(S(C)(=O)=O)c1)c1cc(C3CC3)cnc1N2 (single isomer, unassigned) [647B] ?
Result string: 4.70 to 5.30

Query string: How about CC1(C)CC(=O)C2=C(C1)Nc1ncc(C3CCCC3)c(C#N)c1C2(C)c1ccccc1 (single isomer, unassigned) [635A] ?
Result string: 4.70 to 5.30

***
Query string: Under GSK3a (GST-full length GSK3a) (Homo sapiens, UniProt P49840): pIC50 value of CC(C)Oc1cccc(C2(C)C3=C(CC(C)(C)CC3=O)Nc3ncc4c(cnn4C)c32)c1 (single isomer, unassigned) [645B] ?
Result string: 4.70 to 5.30

Query string: How about CC1(C)CC2=C(C(=O)[C@@H]1F)[C@@](C)(c1ccccc1)c1c(ncc(F)c1C#N)N2 (single isomer, unassigned) [Compound 616A] ?
Result string: 6.00 to 7.00

---

# System: MDR1
# method-summary: MDR1/MDCK permeability assay
# Type: in vitro ADME
# assay-context: dog, MDCK-MDR1, pH 7.4, Papp B-A/A-B; Table 3; read-out: MIDCK Permeability (MDR1-MDCK); Mean; P. Ratio(B-A/A-B) Efflux Ratio
readout: efflux ratio at 120 min, 5 µM
Lab note: jot the number down without any unit.

Query string: Sample CCC1(c2ccccc2)C2=C(CC(C)(C)CC2=O)Nc2ncc(C(F)(F)F)cc21 (single isomer, unassigned) [Compound 133A] — what was its efflux ratio at 120 min, 5 µM?
Result string: 0.56

---

pIC50 listing for selected molecules.
# tgt: GSK3b (GST-full length GSK3b) (Homo sapiens)
# Construct: GST-full length GSK3b: [SignalChem G08-9G]; purchased SignalChem G08-9G
# Sequence (P49841 whole entry): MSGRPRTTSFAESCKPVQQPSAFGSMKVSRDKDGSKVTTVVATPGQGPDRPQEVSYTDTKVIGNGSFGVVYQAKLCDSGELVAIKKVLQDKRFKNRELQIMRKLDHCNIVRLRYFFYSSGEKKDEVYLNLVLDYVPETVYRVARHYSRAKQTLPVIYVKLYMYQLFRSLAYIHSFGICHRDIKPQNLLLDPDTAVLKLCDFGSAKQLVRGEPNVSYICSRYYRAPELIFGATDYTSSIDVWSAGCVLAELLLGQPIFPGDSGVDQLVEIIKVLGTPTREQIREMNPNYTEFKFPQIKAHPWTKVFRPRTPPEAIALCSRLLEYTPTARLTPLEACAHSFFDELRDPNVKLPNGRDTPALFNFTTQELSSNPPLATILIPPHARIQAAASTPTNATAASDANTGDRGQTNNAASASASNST
# method-summary: GSK3b TR-FRET kinase inhibition assay
# Format: biochemical
# assay-context: 1 mM ATP; Table 4; read-out: GSK3β TR-FRET 1 mM ATP GMean IC50
pIC50: −log10 of the molar value.

Examples from the recorded data:
Query string: Under GSK3b (GST-full length GSK3b) (Homo sapiens): pIC50 value of CCC1(c2cccc(-c3ccnc4c3CCCC4)c2)C2=C(CC(C)(C)CC2=O)Nc2ncccc21 (single isomer, unassigned) [Compound 1039B] ?
Result string: 5.30 to 6.00

Query string: How about CCC1(c2cccc(-c3ccnn3C)c2)C2=C(CC(C)(C)CC2=O)Nc2ncccc21 (single isomer, unassigned) [Compound 1019A] ?
Result string: 5.30 to 6.00

Query string: How about CCC1(c2cccc(-c3cn(C)nc3C)c2)C2=C(CC(C)(C)CC2=O)Nc2ncccc21 (single isomer, unassigned) [Compound 1023A] ?
Result string: 5.30 to 6.00

Query string: How about CCC1(c2cccc(-c3ccncc3C)c2)C2=C(CC(C)(C)CC2=O)Nc2ncccc21 (single isomer, unassigned) [Compound 1020B] ?
Result string: 5.30 to 6.00

Query string: How about CCC1(c2ccccc2)C2=C(CC(C)(C)CC2=O)Nc2ncccc21 (single isomer, unassigned) ?
Result string: 4.70 to 5.30

Query string: How about CCC1(c2cccc(-c3c(F)cncc3OC)c2)C2=C(CC(C)(C)CC2=O)Nc2ncc(F)cc21 (single isomer, unassigned) [Compound 161B] ?
Result string: ≥ 7.00

Query string: How about CCC1(c2ccccc2)C2=C(CC(C)(C)CC2=O)Nc2ncc(F)cc21 (single isomer, unassigned) ?
Result string: 5.30 to 6.00

Below: the item to evaluate.
Query string: Under GSK3b (GST-full length GSK3b) (Homo sapiens): pIC50 value of CCC1(c2cccc(-c3c(F)cncc3OC)c2)C2=C(CC(C)(C)CC2=O)Nc2ncccc21 (single isomer, unassigned) [Compound 154B] ?
Result string: 6.00 to 7.00

---

# tgt: GSK3b (GST-full length GSK3b) (Homo sapiens)
# Construct: GST-full length GSK3b: [SignalChem G08-9G]; purchased SignalChem G08-9G
# method-summary: GSK3b TR-FRET kinase inhibition assay
# Type: biochemical
# assay-context: 1 mM ATP; Table 3; read-out: GSK3b TR-FRET 1 mM ATP Average IC50
pIC50: −log10 of the molar value.
pIC50 listing for selected compounds.

Examples from the recorded data:
Query string: Sample CC1(C)CC(=O)C2=C(C1)Nc1ncccc1C2(C)c1cccc(-c2ccncc2CC(F)(F)F)c1 (single isomer, unassigned) [Compound 163A] — what was its pIC50?
Result string: 6.00 to 7.00

Query string: How about CC1(C)CC(=O)C2=C(C1)Nc1nccc(CC(F)(F)F)c1C2(C)c1ccccc1 (single isomer, unassigned) [Compound 132A] ?
Result string: 5.30 to 6.00

Query string: How about CC1(C)CC(=O)C2=C(C1)Nc1ncc(F)c(C(F)(F)F)c1C2(C)c1ccccc1 (single isomer, unassigned) [Compound 135B] ?
Result string: 5.30 to 6.00

Query string: How about Cc1c(F)cnc2c1C(C)(c1cccc(S(C)(=O)=O)c1)C1=C(CC(C)(C)CC1=O)N2 (single isomer, unassigned) [Compound 144A] ?
Result string: 6.00 to 7.00

***
Query string: Sample CCC1(c2cccc(-c3ccnc4c3CCCC4)c2)C2=C(CC(C)(C)CC2=O)Nc2ncc(F)cc21 (single isomer, unassigned) [Compound 165A] — what was its pIC50?
Result string: 6.00 to 7.00

Query string: How about CC1(C)CC(=O)C2=C(C1)Nc1ncccc1C2(C)c1cccc(-c2ccncc2C(C)(C)C)c1 (single isomer, unassigned) [Compound 152A] ?
Result string: 4.70 to 5.30

Query string: How about CC1(C)CC(=O)C2=C(C1)Nc1ncc(F)c(C3CC3)c1C2(C)c1cccc(S(C)(=O)=O)c1 (single isomer, unassigned) [Compound 153A] ?
Result string: ≥ 7.00

Query string: How about CC1(C)CC(=O)C2=C(C1)Nc1nccc(F)c1C2(C)c1ccccc1 (single isomer, unassigned) [Compound 105A] ?
Result string: 4.70 to 5.30

Query string: How about CC1(C)CC(=O)C2=C(C1)Nc1nccc(C(F)(F)F)c1C2(C)c1ccccc1 (single isomer, unassigned) [Compound 127B] ?
Result string: 4.70 to 5.30

Query string: How about COc1cncc(F)c1-c1cccc(C2(C)C3=C(CC(C)(C)CC3=O)Nc3ncc(C)cc32)c1 (single isomer, unassigned) [Compound 155A] ?
Result string: 5.30 to 6.00

Query string: How about CCC1(c2cccc(-c3c(F)cncc3OC)c2)C2=C(CC(C)(C)CC2=O)Nc2ncccc21 (single isomer, unassigned) [Compound 154B] ?
Result string: 4.70 to 5.30

Query string: How about CC1(C)CC(=O)C2=C(C1)Nc1nccc(C#N)c1C2(C)c1ccccc1 (single isomer, unassigned) [Compound 108A] ?
Result string: 6.00 to 7.00

Query string: How about CC1(C)CC(=O)C2=C(C1)Nc1ncc(F)c(C#N)c1C2(C)c1ccccc1 (single isomer, unassigned) [Compound 121A] ?
Result string: ≥ 7.00

---

# tgt: GSK3b (GST-full length GSK3b) (Homo sapiens)
# Construct: GST-full length GSK3b: [SignalChem G08-9G]; purchased SignalChem G08-9G
# method-summary: GSK3b TR-FRET kinase inhibition assay
# Format: biochemical
# assay-context: 2 μM ATP; read-out: GSK3β TR-FRET 2 μM ATP GMean IC50
IC50 listing for selected compounds.

Query string: Sample CCC1(c2cccc(-c3cnnc(C)c3)c2)C2=C(CC(C)(C)CC2=O)Nc2ncccc21 (single isomer, unassigned) [Compound 1022B] — what was its IC50?
Result string: > 5000 nM

***
Query string: Sample CCC1(c2ccccc2)C2=C(CC(C)(C)CC2=O)Nc2ncc(C(F)(F)F)cc21 (single isomer, unassigned) [133 B] — what was its IC50?
Result string: ≤ 100 nM

Query string: How about CCC1(c2cccc(-c3cncn3C(C)C)c2)C2=C(CC(C)(C)CC2=O)Nc2ncc(F)cc21 (single isomer, unassigned) [Compound 1038A] ?
Result string: ≤ 100 nM

Query string: How about CCC1(c2ccccc2)C2=C(CC(C)(C)NC2=O)Nc2ncccc21 (single isomer, unassigned) [Compound 1002B] ?
Result string: 1000 to 5000 nM

Query string: How about CCC1(c2ccccc2)C2=C(CC(C)(C)CC2=O)Nc2ncc(C(F)(F)F)cc21 (single isomer, unassigned) [133 A] ?
Result string: > 5000 nM

Query string: How about CCC1(c2cccc(-c3ccnc4c3CCC4)c2)C2=C(CC(C)(C)CC2=O)Nc2ncccc21 (single isomer, unassigned) [Compound 1034B] ?
Result string: ≤ 100 nM

Query string: How about CCC1(c2ccccc2)C2=C(CC(C)(C)CC2=O)Nc2ncccc21 (single isomer, unassigned) [102 B] ?
Result string: > 5000 nM

Query string: How about CCC1(c2cccc(-c3ccnc4c3CCCC4)c2)C2=C(CC(C)(C)CC2=O)Nc2ncccc21 (single isomer, unassigned) [Compound 1039A] ?
Result string: 100 to 1000 nM

Query string: How about CCC1(c2ccccc2)C2=C(CC(C)(C)CC2=O)Nc2ncc(F)cc21 (racemic) [Compound 114] ?
Result string: ≤ 100 nM

Query string: How about CCC1(c2cccc(-c3ccncc3)c2)C2=C(CC(C)(C)CC2=O)Nc2ncccc21 (single isomer, unassigned) [Compound 1017A] ?
Result string: 100 to 1000 nM

Query string: How about CCC1(c2cccc(C3CCC3)c2)C2=C(CC(C)(C)CC2=O)Nc2ncccc21 (racemic) ?
Result string: ≤ 100 nM

Query string: How about CCC1(c2cccc(-c3cnn(C)c3)c2)C2=C(CC(C)(C)CC2=O)Nc2ncccc21 (single isomer, unassigned) [Compound 1018B] ?
Result string: ≤ 100 nM

Query string: How about CCC1(c2ccccc2)C2=C(Nc3ncccc31)C(F)C(C)(C)CC2=O (single isomer, unassigned) [Compound 1006C] ?
Result string: 1000 to 5000 nM

Data provenance: patent US20260103465A1
